assay comment: Parallel artificial membrane permeability assay, blood-brain barrier (PAMPA-BBB)
cond: PAMPA, pH 7.4
Binary call on Papp at 2.75 h, 0.2 mg/mL: 1 from 10 ×10⁻⁶ cm/s upward, -1 beneath that.

Past entries and their recorded results:
INSERT INTO results (molecule, class_label) VALUES
  ('Cc1c(N(C)C(=O)C(C)c2ccc(-c3ccccc3)c(F)c2)c(=O)n(-c2ccccc2)n1C (centres unmarked) [Compound 11]', -1),
  ('Cc1c(NC(=O)C(C)c2ccc(CC(C)C)cc2)c(=O)n(-c2ccccc2)n1C (centres unmarked) [Compound 7]', 1),
  ('Cc1c(N(C)C(=O)C(C)c2ccc(CC(C)C)cc2)c(=O)n(-c2ccccc2)n1C (centres unmarked) [Compound 10]', 1);

Hi team, for Cc1c(NC(=O)Cc2ccc(-c3ccccc3)cc2)c(=O)n(-c2ccccc2)n1C [Compound 9] , is the recorded Papp at 2.75 h, 0.2 mg/mL at or above 10 ×10⁻⁶ cm/s?
-1

Hi team, for Cc1c(NC(=O)C(C)c2ccc(-c3ccccc3)c(F)c2)c(=O)n(-c2ccccc2)n1C (centres unmarked) [Compound 8] , is the recorded Papp at 2.75 h, 0.2 mg/mL at or above 10 ×10⁻⁶ cm/s?
1
